# experimental protocol: Cytotoxicity test on THP-1 cells (alamarBlue)
# Format: cell-based
# experimental parameters: human, THP-1 cells (acute monocytic leukemia cell line); CSV supplement; read-out: CC50 against human acute monocytic leukemia cell line (THP-1)
Cut-off 60 µM on CC50 at 72 h: below means yes (1), at or above means no (0).

Completed entries (count: 2):
CO[C@]1(C)OCC(c2ccccc2)(c2ccccc2)C[C@@H]1CNCCCn1ccnc1 (racemic) [3b] ... yes (1)
CCCCC1(CCCC)C[C@H](CNCCCn2ccnc2)[C@](C)(OC)OO1 [2a] ... no (0)

Inquiry: Please let me know if CO[C@]1(C)OOC(c2ccccc2)(c2ccccc2)C[C@@H]1CNCCCn1ccnc1 [2b] shows CC50 at 72 h below 60 µM.
Reply text: yes (1)

Inquiry: What do we get for Br.CO[C@]1(C)OOC(c2ccccc2)(c2ccccc2)C[C@@H]1COCc1cn(CCC[P+](c2ccccc2)(c2ccccc2)c2ccccc2)nn1 [2d] ?
Reply text: no (0)

Inquiry: Same again, this time with CCCCC1(CCCC)CO[C@@](C)(OC)[C@@H](CNCCCn2ccnc2)C1 (racemic) [3a]
Reply text: yes (1)

Inquiry: Lookup CO[C@]1(C)OCC(c2ccccc2)(c2ccccc2)C[C@@H]1COCc1cn(CCC[P+](c2ccccc2)(c2ccccc2)c2ccccc2)nn1.[Br-] (racemic) [3d]
Reply text: no (0)
